# MEASUREMENT_DESCRIPTION: chemical genetic growth profiling, strain panel (AID 1159580);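 note: tested at 20 µM; growth read once vehicle control cultures reached saturation at 30 °C; 1 = growth at the plate median or of vehicle wells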
# REPORTED_CONDITIONS: S. cerevisiae deletion strains, growth OD, locus YLR268W, strain sec22, stronger effect = lower value
The campaign covered roughly 5,500 compounds. About 2,000 (36%) were called active. Not shown: some 18% with an inconclusive outcome. The list shows a part of the results. Where a SMILES comes first, the peptide text is derived from it.
Entries and their measured normalized growth follow.
Form: value (number only, do not type unit).

Answered examples (3):
COMPOUND	normalized growth
NC1(C(=O)O)CCC1	0.951
CC(=O)N[C@@H](CCC(=O)O)C(=O)O	1.06
CCC(=O)OC1[C@@H]2CC3=C4CC(=O)O[C@@H](c5ccoc5)[C@]4(C)CCC3[C@@](C)(C2=O)[C@@H](CC(=O)OC)C1(C)C (stereo partly specified)	0.997

**Q:** Consider the compound shown here: CC(=O)N[C@@H](CC(=O)O)C(=O)N[C@@H](CCC(=O)O)C(=O)O (Ac-Asp-Glu-OH) What is its recorded normalized growth?
**A:** 0.981

**Q:** Given CC1OC(O[C@H]2/C=C/C=C/C=C/C=C/C=C/C=C/C=C/[C@H](C)[C@@H](O)[C@@H](C)[C@H](C)OC(=O)CC(O)CC(O)CCC(O)C(O)CC(O)C[C@]3(O)C[C@H](O)C(C(=O)O)C(C2)O3)C(O)[C@H](N)C1O (stereo partly specified) , state its recorded normalized growth.
**A:** 1.06

**Q:** Can you share its normalized growth? I mean this compound: COc1ccc2c(c1)OCC(Cc1ccc(OC)c(OC(C)=O)c1)C2=O (stereo unspecified)
**A:** 0.992
